# Test: Plasma pharmacokinetics of GDC-0810 and glucuronide metabolites
# Assay type: in vivo, human
# Run Parameters: human, plasma, oral; after dosing; read-out: median Tmax
Value Type: Tmax

## Task Tmax for CC/C(=C(/c1ccc(/C=C/C(=O)O)cc1)c1ccc2[nH]ncc2c1)c1ccc(F)cc1Cl [GDC-0810] ?
## Result 1 to 3 h
